Test protocol: Pharmacokinetic studies in mice (plasma, brain)
Format: in vivo
Measurement conditions: male, CD-1, mouse, 8 mg/kg; plasma, oral, mice, normalized to 25 mg/kg (Table 3a); read-out: Exposure/trapezoid AUC0-last
In this section we review reported AUC(0-t) values for a set of molecules.
The answer consists of two parts: a number and, after it, its unit.

INSERT INTO assay_data (record_smiles, observable, result) VALUES
  ('CC1(C)OB(O)c2cc(NC(=O)c3ccc(F)cc3Cl)ccc21', 'AUC(0-t)', '56900 ng·h/mL');

Here's the next entry for you.
// lookup AUC(0-t) for O=C(Nc1ccc2c(c1)B(O)OC2)c1ccc(F)cc1Cl
14400 ng·h/mL

====

In this section we review reported AUC(0-t) values for a set of compounds.
Test protocol: Pharmacokinetic studies in rats (plasma, brain, CSF)
Format: in vivo
Measurement conditions: male, Sprague Dawley, rat; CSF, oral, rats, normalized to 25 mg/kg; read-out: Exposure/trapezoid AUC0-18
Give your result in ng·h/mL as a bare value.

// lookup AUC(0-t) for O=C(Nc1ccc2c(c1)B(O)OC2)c1ccc(F)cc1C(F)(F)F [E19]
3800

For CC1(C)OB(O)c2cc(NC(=O)c3ccc(F)cc3C(F)(F)F)ccc21 [compound 82] then?
13600

====

Test protocol: Kinetic solubility by nephelometric (light scattering) method
Format: physicochemical
Measurement conditions: phosphate buffered saline, aqueous buffer, kinetic from dmso stock, PBS pH 7.4
In this section we review reported solubility at 90 min values for a set of compounds.

# example entries with known answers
INSERT INTO measurements (compound, observable, result) VALUES
  ('CC1(C)OB(O)c2cc(NC(=O)c3ccccc3C(F)(F)F)ccc21', 'solubility at 90 min', '50 µM'),
  ('CC1(C)OB(O)c2cc(NC(=O)c3ccccc3)ccc21', 'solubility at 90 min', '200 µM'),
  ('CC1(C)OB(O)c2cc(NC(=O)c3ccccc3Br)ccc21', 'solubility at 90 min', '50 µM'),
  ('CC1OB(O)c2cc(NC(=O)c3ccccc3C(F)(F)F)ccc21 (stereo not shown)', 'solubility at 90 min', '3 µM'),
  ('Cc1ccc(C(=O)Nc2ccc3c(c2)B(O)OC3C)cc1 (stereo not shown)', 'solubility at 90 min', '100 µM');

// lookup solubility at 90 min for CC1OB(O)c2cc(NC(=O)c3ccc(Cl)cc3)ccc21 (stereo not shown)
25 µM

For O=C(Nc1ccc2c(c1)B(O)OC21CCCC1)c1ccc(F)cc1C(F)(F)F then?
25 µM

For CC1(C)OB(O)c2cc(NC(=O)c3ccccc3Cl)ccc21 then?
13 µM

For CC(C)(C)c1ccc(C(=O)Nc2ccc3c(c2)B(O)OC3(C)C)cc1 then?
6 µM

====

In this section we review reported IC50 values for a set of molecules.
System: bloodstream-form trypanosome T. brucei brucei 427 strain
Test protocol: Trypanosoma brucei brucei high-throughput in vitro drug sensitivity assay (resazurin)
Type: cell-based
Measurement conditions: Trypanosoma brucei; 72 hrs incubation; read-out: T. b. brucei IC50
Give your result in nM as a bare value.

# example entries with known answers
INSERT INTO measurements (molecule, study_target, quantitative_readout) VALUES
  ('CC1OB(O)c2cc(NC(=O)c3ccc(Cl)cc3)ccc21 (centres unmarked)', 'bloodstream-form trypanosome T. brucei brucei 427 strain', 159),
  ('CC1(C)OB(O)c2cc(NC(=O)c3ccccc3Br)ccc21', 'bloodstream-form trypanosome T. brucei brucei 427 strain', 631),
  ('CC1OB(O)c2cc(NC(=O)c3cccc(F)c3)ccc21 (centres unmarked)', 'bloodstream-form trypanosome T. brucei brucei 427 strain', 130);

Here's the next entry for you.
// lookup IC50 for O=C(Nc1ccc2c(c1)B(O)OC21CCC1)c1ccc(F)cc1Cl
498

Measured values drawn from patent US20110190235A1 for this set.
